These entries and their values trace back to patent US20220402948A1.

Overview of recorded IC50 for various compounds
testedSystem: IGF1R (Homo sapiens, UniProt P08069)
Sequence (P08069 31-1367, species assumed): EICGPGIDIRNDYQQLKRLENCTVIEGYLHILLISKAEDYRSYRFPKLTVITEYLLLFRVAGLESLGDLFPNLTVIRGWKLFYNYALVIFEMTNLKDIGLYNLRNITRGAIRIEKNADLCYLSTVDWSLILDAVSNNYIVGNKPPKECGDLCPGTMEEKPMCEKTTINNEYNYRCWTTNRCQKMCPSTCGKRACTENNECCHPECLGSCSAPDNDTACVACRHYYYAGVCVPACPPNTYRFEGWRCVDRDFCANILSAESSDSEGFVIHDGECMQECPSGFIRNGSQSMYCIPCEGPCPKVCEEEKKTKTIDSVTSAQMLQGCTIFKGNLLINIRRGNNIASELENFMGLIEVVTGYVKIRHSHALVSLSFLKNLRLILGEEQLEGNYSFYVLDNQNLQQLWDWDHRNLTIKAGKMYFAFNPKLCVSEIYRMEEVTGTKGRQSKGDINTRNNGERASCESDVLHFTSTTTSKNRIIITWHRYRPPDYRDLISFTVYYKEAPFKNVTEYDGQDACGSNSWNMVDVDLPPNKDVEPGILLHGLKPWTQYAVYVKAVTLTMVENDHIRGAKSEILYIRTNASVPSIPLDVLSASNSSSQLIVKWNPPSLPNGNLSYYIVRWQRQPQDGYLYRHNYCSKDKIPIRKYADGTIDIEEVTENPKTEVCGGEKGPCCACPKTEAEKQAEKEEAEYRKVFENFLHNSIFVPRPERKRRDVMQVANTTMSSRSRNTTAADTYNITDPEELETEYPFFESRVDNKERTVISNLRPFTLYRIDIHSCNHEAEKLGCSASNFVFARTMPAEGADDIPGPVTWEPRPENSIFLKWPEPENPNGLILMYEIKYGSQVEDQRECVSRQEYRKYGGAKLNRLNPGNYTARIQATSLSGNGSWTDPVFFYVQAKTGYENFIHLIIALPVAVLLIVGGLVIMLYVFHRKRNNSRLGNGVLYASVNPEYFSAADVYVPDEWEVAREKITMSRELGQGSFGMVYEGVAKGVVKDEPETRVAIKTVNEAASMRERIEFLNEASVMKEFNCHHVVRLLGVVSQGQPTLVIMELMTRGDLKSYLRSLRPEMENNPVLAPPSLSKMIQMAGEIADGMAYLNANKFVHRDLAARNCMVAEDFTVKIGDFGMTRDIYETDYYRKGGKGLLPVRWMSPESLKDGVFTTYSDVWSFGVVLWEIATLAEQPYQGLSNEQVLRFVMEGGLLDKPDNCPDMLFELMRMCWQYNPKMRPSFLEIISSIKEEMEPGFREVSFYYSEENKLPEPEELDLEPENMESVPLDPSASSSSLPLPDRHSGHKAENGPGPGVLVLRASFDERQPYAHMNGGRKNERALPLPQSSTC
protocol: IGF1R kinase test (mobility variation analysis, Caliper EZ Reader)
conditionDescription: kinase enzymatic activity, Table 1; read-out: EGFR IGF1R IC50
API: value field is a number in nM; no unit string.

>>> reportedvalue("CCc1cc(Nc2ncc(Br)c(Nc3ccc(-c4cc(C)n(C)n4)cc3P(C)(C)=O)n2)c(OC)cc1N1CCC(N2CCN(C)CC2)CC1 [Compound K-066]")
134
>>> reportedvalue("CCc1cc(Nc2ncc(Br)c(Nc3ccc(-c4cn(C)nc4OC)cc3P(C)(C)=O)n2)c(OC)cc1N1CCC(N2CCN(C)CC2)CC1 [Compound 63]")
335
>>> reportedvalue("CCc1cc(Nc2ncc(Cl)c(Nc3ccc(-c4cnccc4OC)cc3P(C)(C)=O)n2)c(OC)cc1N1CCC(N2CCN(C)CC2)CC1 [Compound 53]")
1100
>>> reportedvalue("CCc1cc(Nc2ncc(Br)c(Nc3ccc(-c4ccc(OC)cn4)cc3P(C)(C)=O)n2)c(OC)cc1N1CCC(N2CCN(C)CC2)CC1 [Compound K-074]")
253
>>> reportedvalue("CCc1cc(Nc2ncc(Br)c(Nc3ccc(-c4ncn(C)n4)cc3P(C)(C)=O)n2)c(OC)cc1N1CCC(N2CCN(C)CC2)CC1 [Compound 31]")
179
>>> reportedvalue("CCc1cc(Nc2ncc(Br)c(Nc3ccc(-n4cc(C)cn4)cc3P(C)(C)=O)n2)c(OC)cc1N1CCC(N2CCN(C)CC2)CC1 [Compound 86]")
219
>>> reportedvalue("CCc1cc(Nc2ncc(Cl)c(Nc3ccc(-c4cncs4)cc3P(C)(C)=O)n2)c(OC)cc1N1CCC(N2CCN(C)CC2)CC1 [Compound 15]")
66.5
>>> reportedvalue("CCc1cc(Nc2ncc(Cl)c(Nc3ccc(-c4cnn5c4OCCC5)cc3P(C)(C)=O)n2)c(OC)cc1N1CCC(N2CCN(C)CC2)CC1 [Compound 7]")
187

Return the recorded IC50 value; entry: CCc1cnc(-c2ccc(Nc3nc(Nc4cc(CC)c(N5CCC(N6CCN(C)CC6)CC5)cc4OC)ncc3Br)c(P(C)(C)=O)c2)nc1 [Compound 70]
246

Return the recorded IC50 value; entry: CCc1cc(Nc2ncc(Br)c(Nc3ccc(-c4cnn(CC)n4)cc3P(C)(C)=O)n2)c(OC)cc1N1CCC(N2CCN(C)CC2)CC1 [Compound K-062]
126

Return the recorded IC50 value; entry: CCc1cc(Nc2ncc(Br)c(Nc3ccc(-c4nccn4C4CC4)cc3P(C)(C)=O)n2)c(OC)cc1N1CCC(N2CCN(C)CC2)CC1 [Compound 69]
1940

Return the recorded IC50 value; entry: CCc1cc(Nc2ncc(Br)c(Nc3ccc(-n4cc(OC)cn4)cc3P(C)(C)=O)n2)c(OC)cc1N1CCC(N2CCN(C)CC2)CC1 [Compound K-054]
268

Return the recorded IC50 value; entry: C#Cc1cnc(-c2ccc(Nc3nc(Nc4cc(CC)c(N5CCC(N6CCN(C)CC6)CC5)cc4OC)ncc3Br)c(P(C)(C)=O)c2)cn1 [Compound K-010]
46
